molecular target: recombinant human LTA4 hydrolase (rhLTA4H) (Homo sapiens); construct: made in house; host or cells: Spodoptera frugiperda (Sf-9) cells, recombinant baculovirus (pFastBac1); assay: Recombinant human LTA4 hydrolase assay for LTA4 hydrolase inhibitor activity; format: biochemical; conditions: rhLTA4H, LTA4 substrate, LTB4 by immunoassay; single determination or average; read-out: IC50
Structures can show the parent of a compound that is named as a salt.
# Lookup of reported pIC50 keyed by entry
Reminder that pIC50 means the negative base-10 logarithm of the concentration expressed in mol/L.

Please review the entries below; each comes with its answer.
                                   compound  endpoint_result
0  c1cnc2sc(Oc3ccc(CCN4CCCCCC4)cc3)nc2n1 [Example 179]             7.42
1  CC(=O)N1C[C@@H]2C[C@H]1CN2Cc1ccc(Oc2nc3nccnc3s2)cc1 [Example 120]             6.96
2  c1ccc2c(c1)CN(CCOc1ccc(Oc3nc4ncccc4s3)cc1)C2 [Example 2]             6.96

Consider the compound NC(=O)C1CCN(Cc2ccc(Oc3nc4ncc(Cl)cc4s3)cc2)CC1 [Example 284] and give its measured pIC50.
7.05

Another compound to look at: CN1CCCN(CCOc2ccc(Oc3nc4cccnc4s3)cc2)CC1 [Example 152]
6.30

Another compound to look at: FC(F)(F)C1CCN(Cc2ccc(Oc3nc4ncccc4s3)cc2)CC1 [Example 92]
8.40

Another compound to look at: c1cnc(OC2CCN(Cc3ccc(Oc4nc5ncccc5s4)cc3)CC2)nc1 [Example 99]
8.70

Another compound to look at: NC(=O)N1C[C@H]2CC[C@@H](C1)N2Cc1ccc(Oc2nc3ncccc3s2)cc1 [Example 117]
8.05

Another compound to look at: Cc1cnc2nc(Oc3ccc(CN4CCC(C(=O)N5CCNCC5)CC4)cc3)sc2c1 [Example 229, hydrochloride]
5.96

---

biological target: recombinant human LTA4 hydrolase (rhLTA4H) (Homo sapiens); construct: made in house; host or cells: Spodoptera frugiperda (Sf-9) cells, recombinant baculovirus (pFastBac1); experiment: Recombinant human LTA4 hydrolase assay for LTA4 hydrolase inhibitor activity; type: biochemical; conditions: rhLTA4H, LTA4 substrate, LTB4 by immunoassay; single determination or average; read-out: IC50
Structures can show the parent of a compound that is named as a salt.
Mark class 1 only for IC50 values smaller than 30 nM; exact matches and larger values are class 0.

Could you please tell me whether IC50 recorded for NC(=O)N[C@@H]1C[C@H]2CC[C@@H](C1)N2CCOc1ccc(Oc2nc3ncccc3s2)cc1 [Example 142, hydrochloride] is less than 30 nM?
class 1

Another molecule to look at: CS(=O)(=O)N[C@@H]1C[C@H]2CC[C@@H](C1)N2Cc1ccc(Oc2nc3ccncc3s2)cc1 [Example 249]
class 0

Another molecule to look at: c1cnc2nc(Oc3ccc(CN4CCC(Oc5ccncc5)CC4)cc3)sc2c1 [Example 262]
class 1

Another molecule to look at: CC(=O)N1C[C@H]2CC[C@@H](C1)N2CCc1ccc(Oc2nc3cccnc3s2)cc1 [Example 53]
class 0

Another molecule to look at: O=C1CCCN1C1CCN(CCOc2ccc(Oc3nc4cccnc4s3)cc2)CC1 [Example 43]
class 0

Another molecule to look at: NC(=O)C1CCN(CCOc2ccc(Oc3nc4ncccc4s3)cc2)CC1 [Example 31]
class 1

Another molecule to look at: Cc1cnc2nc(Oc3ccc(CCN4CCC(C(=O)N5CCCC5)CC4)cc3)sc2c1 [Example 198]
class 0

Another molecule to look at: c1cncc(OC2CCN(CCOc3ccc(Oc4nc5ncccc5s4)cc3)CC2)c1 [Example 4]
class 1

---

biological target: recombinant human LTA4 hydrolase (rhLTA4H) (Homo sapiens, UniProt P09960); construct: made in house; host or cells: Spodoptera frugiperda (Sf-9) cells, recombinant baculovirus (pFastBac1); assay: Recombinant human LTA4 hydrolase assay for LTA4 hydrolase inhibitor activity; format: biochemical; conditions: rhLTA4H, LTA4 substrate, LTB4 by immunoassay; single determination or average; read-out: IC50
Readout kind: IC50 (nM)
Write down the numeric answer in nM and omit the unit.

                                   compound  readout_kind  units_text  endpoint_result
0  O=C(c1ccc(Cl)cc1)C1CCN(CCc2ccc(Oc3nc4cnccc4s3)cc2)CC1 [Example 195]          IC50          nM             1370
1  CC(=O)NC1CCN(CCOc2ccc(Oc3nc4ncc(C)cc4s3)cc2)CC1 [Example 154]          IC50          nM               49
2  Cc1ccnc2nc(Oc3ccc(OCCN4CCC(O)(c5ccccn5)CC4)cc3)sc12 [Example 158]          IC50          nM              194
3  CC(=O)N1CC2CN(CCc3ccc(Oc4nc5cccnc5s4)cc3)CC2C1 (centres unmarked) [Example 69]          IC50          nM              120

Param readout = IC50; param system = recombinant human LTA4 hydrolase (rhLTA4H) (Homo sapiens, UniProt P09960); param query = NC(=O)N1C[C@H]2CC[C@@H](C1)N2CCc1ccc(Oc2nc3ncccc3s2)cc1 [Example 54] ; response: value
9.6

Another compound to look at: CN(CCOc1ccc(Oc2nc3ncccc3s2)cc1)Cc1ccccc1 [Example 36]
3

Another compound to look at: NC(=O)N[C@H]1C[C@H]2CC[C@@H](C1)N2CCc1ccc(Oc2nc3cccnc3s2)cc1 [Example 72]
47

Another compound to look at: COc1ccccc1N1CCN(CCOc2ccc(Oc3nc4ncccc4s3)cc2)CC1 [Example 135]
72

---

test system: ex vivo stimulated LTB4 production; assay: Murine arachidonic acid-induced inflammation model: ex vivo stimulated LTB4 production (% Inh. LTB4); conditions: Mus musculus; female Balb/c mice, 30 mg/kg oral gavage; blood taken 3 h after arachidonic acid, ex vivo A23187 stimulation; number of determinations in parentheses
Rule: y for inhibition at 30 mg/kg not less than 80%, n for anything less.

>>> df
                                   molecule                              system  group_label
0  O=C1CCCN1C1CCN(CCc2ccc(Oc3nc4ncccc4s3)cc2)CC1 [Example 46]  ex vivo stimulated LTB4 production            y
1  CC(=O)N[C@@H]1C[C@H]2CC[C@@H](C1)N2CCc1ccc(Oc2nc3ncccc3s2)cc1 [Example 49]  ex vivo stimulated LTB4 production            y

Does the reported inhibition at 30 mg/kg for NC(=O)N1C[C@H]2C[C@@H]1CN2CCc1ccc(Oc2nc3ncccc3s2)cc1 [Example 80] fall at or above the 80% mark?
n

Another molecule to look at: CC(=O)N1C[C@@H]2C[C@H]1CN2Cc1ccc(Oc2nc3ncccc3s2)cc1 [Example 127]
y

Another molecule to look at: c1cnc2nc(Oc3ccc(CN4CCOCC4)cc3)sc2c1 [Example 86]
n

Another molecule to look at: NC(=O)C1CCN(Cc2ccc(Oc3nc4nccnc4s3)cc2)CC1 [Example 285]
n

Another molecule to look at: NC(=O)N1C[C@@H]2C[C@H]1CN2CCOc1ccc(Oc2nc3ncccc3s2)cc1 [Example 15]
n

Another molecule to look at: CC(=O)N1C[C@@H]2CC[C@H]1CN2Cc1ccc(Oc2nc3ncccc3s2)cc1 [Example 290]
y

Another molecule to look at: CC(=O)N1C[C@@H]2C[C@H]1CN2CCc1ccc(Oc2nc3ncccc3s2)cc1 [Example 75]
y

Another molecule to look at: O=C1C[C@@H](O)CN1C1CCN(Cc2ccc(Oc3nc4ncccc4s3)cc2)CC1 [Example 269]
y

Another molecule to look at: CC(=O)N1C[C@H]2CC[C@@H](C1)N2CCc1ccc(Oc2nc3ncccc3s2)cc1 [Example 55]
y

Another molecule to look at: c1cnc2nc(Oc3ccc(CCN4CCCCC4)cc3)sc2c1 [Example 60]
n

---

Target: recombinant human LTA4 hydrolase (rhLTA4H) (Homo sapiens)
Construct: made in house; host or cells: Spodoptera frugiperda (Sf-9) cells, recombinant baculovirus (pFastBac1)
Sequence (P09960 1-611): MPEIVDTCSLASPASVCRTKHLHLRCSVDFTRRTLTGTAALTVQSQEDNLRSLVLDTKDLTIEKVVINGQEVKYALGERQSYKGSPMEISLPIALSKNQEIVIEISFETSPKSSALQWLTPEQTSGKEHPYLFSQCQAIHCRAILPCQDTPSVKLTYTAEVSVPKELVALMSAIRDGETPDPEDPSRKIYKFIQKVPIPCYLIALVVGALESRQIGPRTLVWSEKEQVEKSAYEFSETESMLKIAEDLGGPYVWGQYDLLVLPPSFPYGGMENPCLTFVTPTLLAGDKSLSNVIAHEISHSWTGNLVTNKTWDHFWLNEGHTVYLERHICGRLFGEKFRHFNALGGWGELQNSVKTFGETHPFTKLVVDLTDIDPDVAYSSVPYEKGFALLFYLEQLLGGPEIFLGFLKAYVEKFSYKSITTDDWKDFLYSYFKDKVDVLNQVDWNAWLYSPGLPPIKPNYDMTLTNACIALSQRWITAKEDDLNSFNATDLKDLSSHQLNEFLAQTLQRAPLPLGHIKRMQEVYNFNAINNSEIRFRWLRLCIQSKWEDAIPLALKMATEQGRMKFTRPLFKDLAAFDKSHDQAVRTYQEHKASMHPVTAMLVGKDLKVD
Experiment: Recombinant human LTA4 hydrolase assay for LTA4 hydrolase inhibitor activity
Type: biochemical
Details: rhLTA4H, LTA4 substrate, LTB4 by immunoassay; single determination or average; read-out: IC50
Readout kind: IC50 (nM)
Write down the numeric answer in nM and omit the unit.

Please review the entries below; each comes with its answer.
In [3]: df
Out[3]:
                                   compound  units_text  endpoint_result
0  CC(=O)N1C[C@H]2C[C@@H]1CN2CCOc1ccc(Oc2nc3ncccc3s2)cc1 [Example 267]          nM                3
1  OCCCN(CCOc1ccc(Oc2nc3ccncc3s2)cc1)CC1CC1 [Example 156]          nM              494
2  CC(=O)N1[C@@H]2CC[C@H]1CN(CCOc1ccc(Oc3nc4ncccc4s3)cc1)C2 [Example 162]          nM                3

Consider the compound CC(=O)N1CCC2(CCN(Cc3ccc(Oc4nc5ncccc5s4)cc3)CC2)CC1 [Example 295] and give its measured IC50.
6

Another compound to look at: c1cnc2sc(Oc3ccc(OCCN4CCOCC4)cc3)nc2n1 [Example 150]
602

Another compound to look at: Cc1cnc2nc(Oc3ccc(CN4CCN(C5CCC5)CC4)cc3)sc2c1 [Example 183]
67
